test-protocol: NCI Yeast Anticancer Drug Screen. Data for the wt2 strain (AID 169);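 further: 0% = growth of vehicle-treated yeast cultures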
reported-conditions: S. cerevisiae wt2 strain growth inhibition; at 1.2 µM; hits give high values
Compounds without any hit were thinned out: in the full panel of roughly 79,000, 15% have a hit.
experimental-readout: growth inhibition (%)
Kindly provide the numeric value in % only, without the unit symbol.

As a guide, the following entries are already answered.
# chemical-structure, value
records = [
    ("COC(=O)C(=O)c1c(-c2ccc(Cl)c(Cl)c2)[nH]c2[nH]n(-c3ccccc3)c(=O)c2c1=O", 0),
    ("CN(C)CC(CN(C)C)C(=O)/C=C/c1ccc(Cl)cc1Cl", -2),
    ("Cc1c(Cl)c(C)c(Cl)c(O)c1Cl", -25),
]

Quick one: give measured growth inhibition for O=C1/C(=C/c2ccc(Cl)c(Cl)c2)CNC/C1=C\c1ccc(Cl)c(Cl)c1
1

Quick one: give measured growth inhibition for CCCCCCCN1C(=O)c2ccccc2C1=O
-2

Quick one: give measured growth inhibition for CCN(CC)CC(=O)c1ccc2cc(Cl)c3ccccc3c2c1
7
